experiment: activity coefficient (dimensionless); of the first substance listed, at infinite dilution; xn = mol fraction of the nth substance listed; conditions: 313.15 K; 101.33 kPa; Liquid; Chromatography; x1 = 0
# activity coefficient per record follows
Could you keep your reply to the number by itself?

Some solved cases for reference:
ClC(Cl)Cl [trichloromethane] + CCCCn1cc[n+](C)c1.[O-][Cl+3]([O-])([O-])[O-] = 0.87
CCO [ethanol] + CCCCn1cc[n+](C)c1.[O-][Cl+3]([O-])([O-])[O-] = 1.59
CCOC(C)=O [ethyl acetate] + CCCCn1cc[n+](C)c1.[O-][Cl+3]([O-])([O-])[O-] = 2.31
CCCCCCCCCC [decane] + CCCCn1cc[n+](C)c1.[O-][Cl+3]([O-])([O-])[O-] = 219

Then this molecule:
Query block: # input molecule: CC#N [acetonitrile] + CCCCn1cc[n+](C)c1.[O-][Cl+3]([O-])([O-])[O-] ; wanted: its activity coefficient
Result block: 0.62

----------
assay: activity coefficient (dimensionless); of the first substance listed, at infinite dilution; xn = mol fraction of the nth substance listed; conditions: 313.15 K; 101.33 kPa; Liquid; Chromatography; x1 = 0
result type: activity coefficient
Could you keep your reply to the number by itself?

Some solved cases for reference:
CCCCCCCC [octane] + CCCCn1cc[n+](C)c1.[O-][Cl+3]([O-])([O-])[O-] = 111
CC(C)=O [acetone] + CCCCn1cc[n+](C)c1.[O-][Cl+3]([O-])([O-])[O-] = 0.91
CC(C)CC(C)(C)C [2,2,4-trimethylpentane] + CCCCn1cc[n+](C)c1.[O-][Cl+3]([O-])([O-])[O-] = 102

Query block: # input compound: C1CCCCC1 [cyclohexane] + CCCCn1cc[n+](C)c1.[O-][Cl+3]([O-])([O-])[O-] ; wanted: its activity coefficient
Result block: 34.6

Query block: # input compound: ClCCl [dichloromethane] + CCCCn1cc[n+](C)c1.[O-][Cl+3]([O-])([O-])[O-] ; wanted: its activity coefficient
Result block: 0.91

Query block: # input compound: CCCCCCC [heptane] + CCCCn1cc[n+](C)c1.[O-][Cl+3]([O-])([O-])[O-] ; wanted: its activity coefficient
Result block: 91.6

Query block: # input compound: Cc1ccccc1 [toluene] + CCCCn1cc[n+](C)c1.[O-][Cl+3]([O-])([O-])[O-] ; wanted: its activity coefficient
Result block: 2.96

Query block: # input compound: ClC(Cl)(Cl)Cl [tetrachloromethane] + CCCCn1cc[n+](C)c1.[O-][Cl+3]([O-])([O-])[O-] ; wanted: its activity coefficient
Result block: 3.93

Query block: # input compound: CCC(C)O (configuration not stated) [butan-2-ol] + CCCCn1cc[n+](C)c1.[O-][Cl+3]([O-])([O-])[O-] ; wanted: its activity coefficient
Result block: 2.91

----------
assay: activity coefficient (dimensionless); of the first substance listed, at infinite dilution; xn = mol fraction of the nth substance listed; settings: 343.15 K; 101.33 kPa; Liquid; Chromatography; x1 = 0
Binary call on activity coefficient: satisfied from 50 upward, not satisfied beneath that.

Check out these entries, answers already filled in.
CCOC(C)=O [ethyl acetate] + CCCCn1cc[n+](C)c1.[O-][Cl+3]([O-])([O-])[O-] = not satisfied
CC1CCCCC1 [methylcyclohexane] + CCCCn1cc[n+](C)c1.[O-][Cl+3]([O-])([O-])[O-] = not satisfied
CC#N [acetonitrile] + CCCCn1cc[n+](C)c1.[O-][Cl+3]([O-])([O-])[O-] = not satisfied
CCCCO [butan-1-ol] + CCCCn1cc[n+](C)c1.[O-][Cl+3]([O-])([O-])[O-] = not satisfied
CCCCCCCCC [nonane] + CCCCn1cc[n+](C)c1.[O-][Cl+3]([O-])([O-])[O-] = satisfied
CC(C)O [propan-2-ol] + CCCCn1cc[n+](C)c1.[O-][Cl+3]([O-])([O-])[O-] = not satisfied
CCCCCCCC [octane] + CCCCn1cc[n+](C)c1.[O-][Cl+3]([O-])([O-])[O-] = satisfied

Below: the item to evaluate.
Query block: Tell me whether activity coefficient is at least 50 here: CCCCCCC [heptane] + CCCCn1cc[n+](C)c1.[O-][Cl+3]([O-])([O-])[O-]
Result block: satisfied
